experiment: self-splicing fitness, log relative to wild type (ln ratio); higher = more splicing; Tetrahymena group I intron in knt gene, E. coli kanamycin selection, DiMSum; sequences stand for … in CUCUCU…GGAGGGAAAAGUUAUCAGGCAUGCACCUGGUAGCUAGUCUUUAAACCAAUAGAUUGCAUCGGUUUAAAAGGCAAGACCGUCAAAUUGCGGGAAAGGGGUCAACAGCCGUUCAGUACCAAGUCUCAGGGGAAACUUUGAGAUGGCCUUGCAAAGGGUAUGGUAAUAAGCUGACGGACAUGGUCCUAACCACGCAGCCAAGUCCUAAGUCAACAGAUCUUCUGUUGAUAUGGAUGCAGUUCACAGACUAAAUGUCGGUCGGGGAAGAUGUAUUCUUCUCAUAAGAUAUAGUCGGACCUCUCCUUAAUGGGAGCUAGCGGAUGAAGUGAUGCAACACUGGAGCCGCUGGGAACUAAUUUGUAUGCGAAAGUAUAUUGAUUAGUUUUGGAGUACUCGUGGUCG; settings: 30 °C;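 also: selection with 25 µg/mL kanamycin versus none on LB agar overnight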
resultType: self-splicing fitness (ln)
// keep it numeric: no unit symbol after the value

Ask: Report self-splicing fitness (ln) for `UAGAAGCAAUAUUACGGGUG` please.
Result: -0.989

Ask: Quick one: `AGGCAGCAAUAUUACGUGAA`
Result: -1.12

Ask: Quick one: `GGUAAGCAAUAUUACGGAUA`
Result: -3.17

Ask: Quick one: `AGAUAGCAAUAUUACGCCAA`
Result: -2.98

Ask: Quick one: `AUCUAGCAAUAUUACGGCUA`
Result: -3.6

Ask: Quick one: `UGGGAGCAAUAUUACGCUAU`
Result: -1.67

Ask: Quick one: `UCACAGCAAUAUUACGACGG`
Result: -0.234

Ask: Quick one: `UAAUAGCAAUAUUACGUGAC`
Result: -3.71
